# MEASUREMENT TARGET: EPHB1 (UniProt P54762)
# Sequence (P54762 whole entry, looked up): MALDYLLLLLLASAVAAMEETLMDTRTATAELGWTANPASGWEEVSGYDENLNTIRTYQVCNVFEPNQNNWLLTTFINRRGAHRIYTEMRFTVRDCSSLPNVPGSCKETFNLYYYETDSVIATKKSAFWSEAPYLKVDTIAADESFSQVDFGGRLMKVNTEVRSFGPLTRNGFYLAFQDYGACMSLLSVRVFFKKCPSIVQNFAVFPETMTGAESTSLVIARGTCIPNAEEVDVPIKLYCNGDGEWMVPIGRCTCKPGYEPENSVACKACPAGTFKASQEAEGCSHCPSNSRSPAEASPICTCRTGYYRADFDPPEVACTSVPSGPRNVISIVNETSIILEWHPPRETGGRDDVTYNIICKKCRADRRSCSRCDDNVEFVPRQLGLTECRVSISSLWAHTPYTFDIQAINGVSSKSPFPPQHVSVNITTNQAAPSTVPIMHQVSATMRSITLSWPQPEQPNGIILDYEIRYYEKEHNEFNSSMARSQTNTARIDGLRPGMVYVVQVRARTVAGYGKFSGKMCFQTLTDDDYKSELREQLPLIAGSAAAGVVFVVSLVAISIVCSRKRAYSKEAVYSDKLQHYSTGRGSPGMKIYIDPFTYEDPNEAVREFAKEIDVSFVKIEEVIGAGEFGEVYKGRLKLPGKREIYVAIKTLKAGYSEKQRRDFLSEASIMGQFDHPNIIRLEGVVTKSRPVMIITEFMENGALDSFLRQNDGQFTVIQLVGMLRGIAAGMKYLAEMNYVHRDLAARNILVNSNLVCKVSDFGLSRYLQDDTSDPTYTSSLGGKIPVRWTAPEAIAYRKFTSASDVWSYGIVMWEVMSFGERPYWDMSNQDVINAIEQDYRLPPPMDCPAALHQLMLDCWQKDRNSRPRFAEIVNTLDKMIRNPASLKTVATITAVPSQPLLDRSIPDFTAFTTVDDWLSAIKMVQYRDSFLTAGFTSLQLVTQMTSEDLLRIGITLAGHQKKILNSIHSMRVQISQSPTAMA
# TEST DETAILS: phosphorylation enrichment, bacterial display (enrichment ratio); higher = better substrate or ligand; peptides without Tyr show the background;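 note: 11-residue human phosphosite peptides and single-mutation variants displayed on the E. coli surface, counted by deep sequencing, each peptide's frequency after selection divided by its frequency in the unselected input library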;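 note: frequency after pTyr selection over input frequency; kinase dosed for 20-30% of maximal phosphorylation in three min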
Response field class: string, computed from recorded phosphorylation enrichment by ranges b0 = under 0.6, b1 = from 0.6 up to 0.8, b2 = 0.8 and over

[
  {
    "INPUT SEQUENCE": "YTFNSYYMHWV [IGHV1-46_Y51_T49N]",
    "QUALITATIVE LABEL": "b2"
  },
  {
    "INPUT SEQUENCE": "LTDLRYKVSGL",
    "QUALITATIVE LABEL": "b0"
  },
  {
    "INPUT SEQUENCE": "TEDELYQLFLQ [RASGRP2_Y378_S381F]",
    "QUALITATIVE LABEL": "b2"
  },
  {
    "INPUT SEQUENCE": "QLRPGYIPIPV [BAG3_Y93]",
    "QUALITATIVE LABEL": "b1"
  },
  {
    "INPUT SEQUENCE": "FGLDHYQCDCT [PTGS1_Y54_R53H]",
    "QUALITATIVE LABEL": "b0"
  },
  {
    "INPUT SEQUENCE": "SHLLRYLSWTV [CLCNKB_Y93]",
    "QUALITATIVE LABEL": "b0"
  }
]

Hi there! Could you help me figure out the category for ATQDDYVLEVR [PTPRZ1_Y2179] please?
b1

Hi there! Could you help me figure out the category for TGEDWYVLVRV [SF3B3_Y904_G908R] please?
b2

Hi there! Could you help me figure out the category for SEKISYVYMKR [SSX7_Y48_L43S] please?
b0

Hi there! Could you help me figure out the category for PTTKTYFPHFG [HBA1_Y43_D48G] please?
b0

Hi there! Could you help me figure out the category for GSTLSYFGLAA [P2RX7_Y343] please?
b0

Hi there! Could you help me figure out the category for YGSGNYNDFGN [HNRNPA2B1_Y300] please?
b2
